System: c-Abl (mouse)
Test: phosphorylation enrichment, bacterial display (enrichment ratio); higher = better substrate or ligand; peptides without Tyr show the background
parameter: phosphorylation enrichment
// keep it numeric: no unit symbol after the value

query_sequence: MCTVDYLLRLQ [RYR1_Y3921_I3916M]
phosphorylation enrichment: 0.866
//
query_sequence: KGERGYPGTPG [COL4A1_Y348]
phosphorylation enrichment: 0.42
//
query_sequence: ETLLYYGYRRS [POR_Y564_C566Y]
phosphorylation enrichment: 9.52
//
query_sequence: PEQAAYQKVVA [HBB_Y131_V127E]
phosphorylation enrichment: 1
//
query_sequence: GDGRFYMMEAI [PGM1_Y66_K68M]
phosphorylation enrichment: 0.735
//
query_sequence: ADFPDCKFRPR [SOX11_Y116_Y116C_YF]
phosphorylation enrichment: 0.744

Now for a further sequence.
Observed phosphorylation enrichment on c-Abl (mouse) for PLRAFYLIARV [HLCS_Y635_D634Y_YF] , please.
3.67

###

Molecular target: Grb2 SH2 (UniProt P62993)
Sequence (P62993 whole entry, looked up): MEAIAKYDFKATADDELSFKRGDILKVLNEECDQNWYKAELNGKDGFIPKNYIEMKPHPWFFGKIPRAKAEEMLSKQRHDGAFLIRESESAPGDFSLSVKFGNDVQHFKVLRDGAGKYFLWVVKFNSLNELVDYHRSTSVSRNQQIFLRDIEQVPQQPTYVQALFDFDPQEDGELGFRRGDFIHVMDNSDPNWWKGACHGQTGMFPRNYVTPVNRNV
Assay: SH2 binding enrichment of the phosphorylated peptide, bacterial display (enrichment ratio); higher = better substrate or ligand; peptides without Tyr show the background
Each record's class is read off its SH2 binding enrichment using these ranges: Low = under 0.8, Mid = from 0.8 up to 1, High = 1 and over

Known results for sequences:
query_sequence: GFGGGYGGVLT [KRT19_Y65_A60G_YF]
answer_label: High

query_sequence: PSDLLYIPDIQ [ITGA2B_Y845_L847P]
answer_label: Mid

query_sequence: PSELFYSKISP [SMG1_Y2254_G2258S_YF]
answer_label: Mid

query_sequence: SVVVPYAPPEV [TP53_Y220_E221A]
answer_label: Low

query_sequence: GLNKDYRMVVN [HINT1_Y94_G93D]
answer_label: Low

Each sequence maps to one class by SH2 binding enrichment. Which class for `VRSTEYPCAGL` ?
High

Sort RFLFFYSFLLK [PTEN_Y178_V175L_YF] into one of the categories.
High

Which of the defined bands does the recorded SH2 binding enrichment of ADKSAYLMGPN [MYH7_Y386_L390P] sit within?
Low

For SLAARYYNWVS [FLT4_Y1230] , which SH2 binding enrichment bin applies?
High

Where would SLHPGYNFRYA [P2RX7_Y291_Y288H] land among the classes by reported SH2 binding enrichment?
High

// return the class label for IEELTYVIKQD [STX5_Y137_I138V]
Low

Which category does the recorded SH2 binding enrichment put IENKLYGMSDS [RET_Y1062_P1067S] in?
Low

Which SH2 binding enrichment category applies to VFSTDCFRVGG [NTRK2_Y706_Y706C_YF] here?
Mid

###

Target: Jak2 (UniProt O60674)
Sequence (O60674 whole entry, looked up): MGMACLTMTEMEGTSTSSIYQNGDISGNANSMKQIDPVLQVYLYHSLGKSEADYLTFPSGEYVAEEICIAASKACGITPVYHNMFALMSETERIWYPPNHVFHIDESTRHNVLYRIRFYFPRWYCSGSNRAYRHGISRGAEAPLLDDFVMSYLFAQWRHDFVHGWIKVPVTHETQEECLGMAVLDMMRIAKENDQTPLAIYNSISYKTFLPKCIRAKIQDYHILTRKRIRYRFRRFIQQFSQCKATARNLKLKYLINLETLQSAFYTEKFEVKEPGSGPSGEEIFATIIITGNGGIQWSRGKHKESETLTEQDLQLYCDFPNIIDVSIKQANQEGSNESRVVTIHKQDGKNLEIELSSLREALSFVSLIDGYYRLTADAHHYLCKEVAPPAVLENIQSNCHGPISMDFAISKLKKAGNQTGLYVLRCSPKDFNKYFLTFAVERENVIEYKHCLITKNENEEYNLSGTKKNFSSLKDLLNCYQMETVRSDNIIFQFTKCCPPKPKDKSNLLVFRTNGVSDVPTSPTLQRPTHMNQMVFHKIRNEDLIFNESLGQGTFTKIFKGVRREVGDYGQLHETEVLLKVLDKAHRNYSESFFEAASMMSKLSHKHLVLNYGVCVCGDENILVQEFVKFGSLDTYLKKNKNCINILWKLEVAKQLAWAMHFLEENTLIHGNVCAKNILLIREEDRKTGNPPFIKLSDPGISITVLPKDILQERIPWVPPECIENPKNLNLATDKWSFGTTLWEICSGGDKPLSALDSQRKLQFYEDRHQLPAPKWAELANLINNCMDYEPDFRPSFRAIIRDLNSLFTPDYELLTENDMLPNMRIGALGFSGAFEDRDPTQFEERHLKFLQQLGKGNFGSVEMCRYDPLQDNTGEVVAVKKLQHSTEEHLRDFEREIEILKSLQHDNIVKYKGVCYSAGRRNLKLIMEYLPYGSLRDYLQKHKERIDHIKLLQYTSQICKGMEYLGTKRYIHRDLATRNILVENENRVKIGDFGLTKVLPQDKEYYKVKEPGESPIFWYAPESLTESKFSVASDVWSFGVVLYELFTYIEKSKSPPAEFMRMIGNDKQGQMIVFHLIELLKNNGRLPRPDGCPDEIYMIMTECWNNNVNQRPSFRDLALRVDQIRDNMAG
Assay: phosphorylation enrichment, bacterial display (enrichment ratio); higher = better substrate or ligand; peptides without Tyr show the background
Recorded measurements of phosphorylation enrichment, one per entry

These solved cases illustrate the format of a correct answer.
query_sequence: HSFQCYGRNEA [ENTPD3_Y262]
phosphorylation enrichment: 0.594

query_sequence: VQNIVYRTASI [CYP39A1_Y102]
phosphorylation enrichment: 0.581

query_sequence: FLAVGYHKLHI [IDS_Y225_P228L]
phosphorylation enrichment: 1.13

For the sequence shown here, ETKKQYNSFTY [TMED3_Y85_D86N] , give the reported phosphorylation enrichment.
0.54

Bench note: what phosphorylation enrichment did GFPVHYTDVSN [DNMT3B_Y815] show?
0.51

Find the recorded phosphorylation enrichment belonging to AASTDYFKRGD [PDHA1_Y242_YF] and report it.
0.57

Fill in the blank: the reported phosphorylation enrichment of IDLEKYKLLPE [DHFR_Y157] is ____.
0.92

Given the entry MHDKEYYSVHN [MET_Y1234_Y1230H] , report its measured phosphorylation enrichment.
0.807

I have this sequence here, CHRQLYHKCTH [F12_Y58_Y53C] , and I need its recorded phosphorylation enrichment.
0.667

Please look up its phosphorylation enrichment: QRIHNYYEHRY [HCN4_Y554_D553N]
0.724
